- System: Escherichia coli TOP10
- PROCEDURE_TEXT: shrunken log2 fold change of peptide-encoding DNA abundance (4.5 h post-induction vs induction); higher = less antimicrobial activity (less host growth inhibition)
- CONDITION_LABEL: time post-induction: 4.5 h; library: site-saturation at positions 5, 18, 19, 20
Below, each of the sequences is paired with its reported shrunken log2 fold change value.

>  <SEQUENCE_STRING>
RRIRNRPPRLPRPRPRPKLVPRP

>  <shrunken log2 fold change>
0.163

$$$$
>  <SEQUENCE_STRING>
RRIRERPPRLPRPRPRPKHPPRP

>  <shrunken log2 fold change>
-0.0977

$$$$
>  <SEQUENCE_STRING>
RRIRNRPPRLPRPRPRPFPMPRP

>  <shrunken log2 fold change>
-0.0139

$$$$
>  <SEQUENCE_STRING>
RRIRERPPRLPRPRPRPERVPRP

>  <shrunken log2 fold change>
-0.0309

$$$$
>  <SEQUENCE_STRING>
RRIRKRPPRLPRPRPRPDTPPRP

>  <shrunken log2 fold change>
0.546

$$$$
>  <SEQUENCE_STRING>
RRIRQRPPRLPRPRPRPMKHPRP

>  <shrunken log2 fold change>
-0.373

$$$$
>  <SEQUENCE_STRING>
RRIRVRPPRLPRPRPRPTPNPRP

>  <shrunken log2 fold change>
0.306

$$$$
>  <SEQUENCE_STRING>
RRIRGRPPRLPRPRPRPESCPRP

>  <shrunken log2 fold change>
1.33

$$$$
>  <SEQUENCE_STRING>
RRIRDRPPRLPRPRPRPNHDPRP

>  <shrunken log2 fold change>
-0.312

$$$$
>  <SEQUENCE_STRING>
RRIRWRPPRLPRPRPRPRAWPRP

>  <shrunken log2 fold change>
0.124

$$$$
>  <SEQUENCE_STRING>
RRIRFRPPRLPRPRPRPNIRPRP

>  <shrunken log2 fold change>
-0.184

$$$$
>  <SEQUENCE_STRING>
RRIRIRPPRLPRPRPRPGFTPRP

>  <shrunken log2 fold change>
-0.329

$$$$
>  <SEQUENCE_STRING>
RRIRCRPPRLPRPRPRPQTCPRP

>  <shrunken log2 fold change>
0.034

$$$$
>  <SEQUENCE_STRING>
RRIRLRPPRLPRPRPRPIDAPRP

>  <shrunken log2 fold change>
0.206

$$$$
>  <SEQUENCE_STRING>
RRIRLRPPRLPRPRPRPACGPRP

>  <shrunken log2 fold change>
0.412

$$$$
>  <SEQUENCE_STRING>
RRIRRRPPRLPRPRPRPEHKPRP

>  <shrunken log2 fold change>
0.193

$$$$
>  <SEQUENCE_STRING>
RRIRMRPPRLPRPRPRPVPHPRP

>  <shrunken log2 fold change>
0.537

$$$$
>  <SEQUENCE_STRING>
RRIRWRPPRLPRPRPRPTSEPRP

>  <shrunken log2 fold change>
0.116

$$$$
>  <SEQUENCE_STRING>
RRIRNRPPRLPRPRPRPGNQPRP

>  <shrunken log2 fold change>
-0.00674

$$$$
>  <SEQUENCE_STRING>
RRIRWRPPRLPRPRPRPKVTPRP

>  <shrunken log2 fold change>
-0.165

$$$$
>  <SEQUENCE_STRING>
RRIRQRPPRLPRPRPRPYQKPRP

>  <shrunken log2 fold change>
-0.0335

$$$$
>  <SEQUENCE_STRING>
RRIRQRPPRLPRPRPRPKSEPRP

>  <shrunken log2 fold change>
-0.0211

$$$$
>  <SEQUENCE_STRING>
RRIRFRPPRLPRPRPRPILMPRP

>  <shrunken log2 fold change>
-0.0682

$$$$
>  <SEQUENCE_STRING>
RRIRHRPPRLPRPRPRPDHQPRP

>  <shrunken log2 fold change>
0.0561

$$$$
>  <SEQUENCE_STRING>
RRIRNRPPRLPRPRPRPLRGPRP

>  <shrunken log2 fold change>
0.654

$$$$
>  <SEQUENCE_STRING>
RRIRTRPPRLPRPRPRPFLRPRP

>  <shrunken log2 fold change>
-0.0935

$$$$
>  <SEQUENCE_STRING>
RRIRNRPPRLPRPRPRPKRDPRP

>  <shrunken log2 fold change>
0.411

$$$$
>  <SEQUENCE_STRING>
RRIRERPPRLPRPRPRPQWKPRP

>  <shrunken log2 fold change>
-0.0957

$$$$
>  <SEQUENCE_STRING>
RRIRMRPPRLPRPRPRPEHCPRP

>  <shrunken log2 fold change>
0.429

$$$$
>  <SEQUENCE_STRING>
RRIRERPPRLPRPRPRPAKDPRP

>  <shrunken log2 fold change>
-0.284

$$$$
>  <SEQUENCE_STRING>
RRIRYRPPRLPRPRPRPVYVPRP

>  <shrunken log2 fold change>
-0.37

$$$$
>  <SEQUENCE_STRING>
RRIRARPPRLPRPRPRPCYHPRP

>  <shrunken log2 fold change>
-0.0657

$$$$

* * *

- Test system: Escherichia coli TOP10;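 also: peptides expressed intracellularly from a pBAD plasmid library in pooled LB shake-flask culture, induced with 0.3% L-arabinose, DNA abundance read by NGS, three biological replicates, DESeq2 with apeglm shrinkage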
- PROCEDURE_TEXT: shrunken log2 fold change of peptide-encoding DNA abundance (4.5 h post-induction vs induction); higher = less antimicrobial activity (less host growth inhibition)
- CONDITION_LABEL: time post-induction: 4.5 h; library: site-saturation at positions 5, 18, 19, 20
shrunken log2 fold change values by entry
MEASURED_METRIC: shrunken log2 fold change

>  <SEQUENCE_STRING>
RRIRWRPPRLPRPRPRPPFLPRP

>  <MEASURED_METRIC>
shrunken log2 fold change

>  <RESULT_VALUE>
0.26

$$$$
>  <SEQUENCE_STRING>
RRIRHRPPRLPRPRPRPGTHPRP

>  <MEASURED_METRIC>
shrunken log2 fold change

>  <RESULT_VALUE>
0.0646

$$$$
>  <SEQUENCE_STRING>
RRIRMRPPRLPRPRPRPQHGPRP

>  <MEASURED_METRIC>
shrunken log2 fold change

>  <RESULT_VALUE>
0.0121

$$$$
>  <SEQUENCE_STRING>
RRIRNRPPRLPRPRPRPFFKPRP

>  <MEASURED_METRIC>
shrunken log2 fold change

>  <RESULT_VALUE>
0.0559

$$$$
>  <SEQUENCE_STRING>
RRIRFRPPRLPRPRPRPEQTPRP

>  <MEASURED_METRIC>
shrunken log2 fold change

>  <RESULT_VALUE>
-0.0498

$$$$
>  <SEQUENCE_STRING>
RRIRHRPPRLPRPRPRPFSAPRP

>  <MEASURED_METRIC>
shrunken log2 fold change

>  <RESULT_VALUE>
-0.186

$$$$
>  <SEQUENCE_STRING>
RRIRPRPPRLPRPRPRPCCTPRP

>  <MEASURED_METRIC>
shrunken log2 fold change

>  <RESULT_VALUE>
-0.12

$$$$
>  <SEQUENCE_STRING>
RRIRTRPPRLPRPRPRPSEYPRP

>  <MEASURED_METRIC>
shrunken log2 fold change

>  <RESULT_VALUE>
-0.0517

$$$$
>  <SEQUENCE_STRING>
RRIRARPPRLPRPRPRPKFQPRP

>  <MEASURED_METRIC>
shrunken log2 fold change

>  <RESULT_VALUE>
0.328

$$$$
>  <SEQUENCE_STRING>
RRIRMRPPRLPRPRPRPSCDPRP

>  <MEASURED_METRIC>
shrunken log2 fold change

>  <RESULT_VALUE>
0.444

$$$$
>  <SEQUENCE_STRING>
RRIRRRPPRLPRPRPRPKAGPRP

>  <MEASURED_METRIC>
shrunken log2 fold change

>  <RESULT_VALUE>
0.319

$$$$
>  <SEQUENCE_STRING>
RRIRARPPRLPRPRPRPMKTPRP

>  <MEASURED_METRIC>
shrunken log2 fold change

>  <RESULT_VALUE>
0.0191

$$$$
>  <SEQUENCE_STRING>
RRIRNRPPRLPRPRPRPSEVPRP

>  <MEASURED_METRIC>
shrunken log2 fold change

>  <RESULT_VALUE>
-0.0684

$$$$
>  <SEQUENCE_STRING>
RRIRDRPPRLPRPRPRPQMCPRP

>  <MEASURED_METRIC>
shrunken log2 fold change

>  <RESULT_VALUE>
-0.183

$$$$
>  <SEQUENCE_STRING>
RRIRQRPPRLPRPRPRPALRPRP

>  <MEASURED_METRIC>
shrunken log2 fold change

>  <RESULT_VALUE>
-0.00883

$$$$
